# study system: Recombinant STAT3 protein (STAT3 (G127-I722)) (Homo sapiens)
# Construct: Recombinant STAT3 protein (STAT3 (G127-I722))
# Sequence (P40763 127-722): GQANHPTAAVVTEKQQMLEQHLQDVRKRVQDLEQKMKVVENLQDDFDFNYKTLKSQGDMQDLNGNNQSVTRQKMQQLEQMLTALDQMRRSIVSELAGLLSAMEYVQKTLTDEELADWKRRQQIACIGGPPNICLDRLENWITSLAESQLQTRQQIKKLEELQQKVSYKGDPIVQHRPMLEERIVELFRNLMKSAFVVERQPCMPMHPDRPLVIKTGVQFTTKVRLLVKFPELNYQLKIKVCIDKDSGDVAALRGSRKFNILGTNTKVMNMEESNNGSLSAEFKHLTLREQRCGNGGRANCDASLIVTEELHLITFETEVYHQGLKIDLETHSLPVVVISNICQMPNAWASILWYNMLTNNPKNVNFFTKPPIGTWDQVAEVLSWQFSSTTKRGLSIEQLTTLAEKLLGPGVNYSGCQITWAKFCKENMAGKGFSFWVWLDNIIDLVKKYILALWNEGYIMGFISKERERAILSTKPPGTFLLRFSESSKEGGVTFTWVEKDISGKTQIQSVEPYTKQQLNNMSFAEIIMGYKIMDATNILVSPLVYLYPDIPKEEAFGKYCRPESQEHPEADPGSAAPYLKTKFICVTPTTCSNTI
# test protocol: STAT3 Fluorescence Polarization (FP) Assay
# Type: binding
# condition description: STAT3 (G127-I722) 25 nM, probe 5-FAM-GpYLPQTV-NH2 2 nM, 45-minute incubation; read-out: STAT3 (FP assay IC50 class)
pIC50: −log10 of the molar value.
Consider the following compounds and their measured pIC50 readings.

compound | pIC50
N#C[C@@H]1CN(C(=O)[C@@H]2CC[C@@H]3CCC[C@@H](C4CC4)[C@H](NC(=O)c4cc5cc(C(F)(F)P(=O)(O)O)ccc5s4)C(=O)N32)C[C@H]1c1ccccc1 (single isomer, unassigned) | 5.00 to 6.00
O=C(N[C@H]1CCC[C@H]2CC[C@@H](C(=O)N3CC(n4ccc(=O)nc4)C3)N2C1=O)c1cc2cc(C(F)P(=O)(O)O)ccc2s1 (stereo partly shown) | 6.00 to 7.00
O=C(N[C@H]1CCCC[C@H]2CC[C@@H](C(=O)N3C(=O)N(c4ccn(C(F)F)c(=O)c4)C(=O)C34CC4)N2C1=O)c1cc2cc(C(F)P(=O)(O)O)ccc2s1 (stereo partly shown) | 5.00 to 6.00
Cn1cnc2cc(CNC(=O)[C@@H]3CC[C@@H]4CCC[C@H](NC(=O)c5cc6cc(C(F)(F)P(=O)(O)O)ccc6s5)C(=O)N43)cnc21 | 6.00 to 7.00
